tested on: HOP-18 NSCLC; assay: NCI tumour cell line growth inhibition, 48 h
# maps each entry to its TGI
Report as a plain number; the unit µM is understood.

{"columns": ["Molecule", "Readout name", "Recorded value"],
 "data": [
  ["CC1CCC2(C(=O)O)CCC3(C)C(=CCC4C5(C)CCC(O)C(C)(C)C5CCC43C)C2C1C (stereo not given)", "TGI", 34.4]
]}

Query molecule follows.
What value of TGI has been reported for the following molecule? "CC[P+](C)(C)c1ccccc1"
49.8

----------
system: UO-31 renal; test: NCI tumour cell line growth inhibition, 48 h
Readout name: TGI

Consider the worked cases shown below.
{"columns": ["Compound", "Target system", "TGI"],
 "data": [
  ["COc1cc(S(=O)(=O)Nc2ccc(-c3csc(N)n3)cc2)ccc1Cl", "UO-31 renal", "37.2 µM"],
  ["CC(NC(=O)c1ccccc1)NC(=O)C(C)C(=O)Nc1ccccc1 (stereo not drawn)", "UO-31 renal", "> 100 µM"],
  ["NC(=O)c1ccc(NN=O)nc1", "UO-31 renal", "> 100 µM"],
  ["CNC(=O)N(CCC#N)CCCN(C(=O)NC)c1ccccc1", "UO-31 renal", "> 100 µM"],
  ["CC(NC(=O)C(N)CC(=O)O)NC(=O)C1CCC1 (stereo not drawn)", "UO-31 renal", "> 100 µM"]
]}

What value of TGI has been reported for the following compound? "c1cc2c(c(NC3=NCCO3)c1)CCC2"
> 100 µM

Now consider "CCOC(=O)c1c(Cl)nc2ccccc2c1N=[N+]=[N-]" .
36.5 µM

Now consider "O=C(O)CCc1ccc2c(c1)C(=O)CC2" .
> 100 µM

Now consider "C/C(=C\CCc1ccoc1)CC/C=C(\C)CCCN1CCOCC1" .
24.6 µM

Now consider CCC[C@H](NS(=O)c1ccc(C)cc1)C(C(=O)OCC)=C(c1ccccc1)c1ccccc1 (stereo partly drawn) .
31.2 µM

Now consider "CC(=O)NC1=C(NCCN(C)C)C(=O)c2ccccc2C1=O" .
> 50 µM

Now consider "C[n+]1c(-c2ccc(/C=N/NC(=O)C(=O)N/N=C/c3ccc(-c4cn5ccsc5[n+]4C)cc3)cc2)cn2ccsc21" .
> 100 µM

----------
test system: KM12 colon; experiment: NCI tumour cell line growth inhibition, 48 h
# maps each entry to its TGI

Consider the worked cases shown below.
{"columns": ["Molecule", "Readout name", "Recorded value"],
 "data": [
  ["CCOC(=O)n1cc(C2=C(c3cn(C)c4ccccc34)COC2=O)c2ccccc21", "TGI", "> 100 µM"],
  ["CC(=O)Nc1ccc(-c2nc3ccccc3s2)cc1I", "TGI", "> 100 µM"]
]}

Record lookup: for KM12 colon, what TGI belongs to "CC(=O)CSc1c(-c2ccccc2)c(=O)n(-c2ccccc2)c(=S)n1-c1ccccc1" ?
> 100 µM

Now consider COc1ccc(C(SCC(N)C(=O)O)(c2ccccc2)c2ccccc2)cc1 (stereo unspecified) .
21.3 µM

Now consider "COC(=O)c1c(O)ccc2c1c1c(n2Cc2ccc(Cl)cc2Cl)C(=O)c2ccccc2C1=O" .
15.9 µM

Now consider "O=c1oc2ccccc2c(O)c1/C=N/C(=S)NCCc1ccccc1" .
> 100 µM

----------
system: HOP-62 NSCLC; test: NCI tumour cell line growth inhibition, 48 h
Readout name: GI50

What value of GI50 has been reported for the following compound? "Cc1cc(O)ccc1C1=NN(c2ccc(S(C)(=O)=O)cc2)C(=O)CC1"
9.07 µM

Now consider Cc1ccc(C(SCC(N)C(=O)O)(c2ccc(C)cc2)c2ccc(C)cc2)cc1 (stereo unspecified) .
6.52 µM

Now consider COc1ccc2cc(-c3cc4c(oc3=O)-c3ccccc3OC4O)c(=O)oc2c1 (stereo unspecified) .
20.3 µM

----------
system: KM12 colon; test: NCI tumour cell line growth inhibition, 48 h
Readout name: TGI

{"columns": ["Compound", "TGI"],
 "data": [
  ["O=C(/C(=C\\c1ccc([N+](=O)[O-])cc1)S(=O)Cc1ccc(F)cc1)c1ccc(F)cc1 (stereo not given)", "5.46 µM"]
]}

What value of TGI has been reported for the following compound? CC(/C(=N\Nc1ccccc1)c1ccc(O)cc1)C1C(=O)Oc2ccccc21 (stereo not given)
> 100 µM

----------
system: SNB-75 CNS; experiment: NCI tumour cell line growth inhibition, 48 h; in the data active means GI50 below about 0.43 µM; inactive means the rest
I would appreciate it if you answered using one of these outcomes: true = active, false = inactive

Here's what some known entries look like.
{"columns": ["Molecule", "Category"],
 "data": [
  ["Clc1cccc(Cl)c1C1CSc2ccccc2N=C1c1ccccc1 (centres undefined)", "false"],
  ["CCCCCCCCCCCCCC1=NCCN1CCO", "false"],
  ["C[C@H](Nc1ncnc2nc[nH]c12)c1cc2ccc(F)cc2nc1-c1ccccn1", "false"],
  ["Nc1nc(OCc2cc(Br)cs2)c2[nH]cnc2n1", "false"],
  ["C=C(C)[C@@H]1CC[C@]2(C(=O)O)CC[C@]3(C)[C@H](CC[C@@H]4[C@@]5(C)C[C@@H](CC#Cc6ccc(C(F)(F)F)cc6)[C@H](O)C(C)(C)[C@@H]5CC[C@]43C)[C@@H]12", "false"],
  ["COc1ccc(C(=O)COC(=O)[C@H](C[Se][Se]C[C@H](NC(=O)c2ccc(Br)cc2F)C(=O)OCC(=O)c2ccc(OC)cc2)NC(=O)c2ccc(Br)cc2F)cc1", "true"],
  ["O=C1c2nsnc2C(=O)c2c(F)c(F)c(F)c(F)c21", "false"],
  ["Cc1cc(O)ccc1C1=NN(c2ccc(S(C)(=O)=O)cc2)C(=O)CC1", "false"]
]}

Now examine the next entry.
# lookup: test call for "CS(=O)(=O)Nc1ccc(-c2cc(-c3ccccc3)cc(C(N)=O)c2N)cc1"
false

----------
# maps each entry to its TGI
tested on: HOP-62 NSCLC; experiment: NCI tumour cell line growth inhibition, 48 h
Report as a plain number; the unit µM is understood.

Consider the worked cases shown below.
{"columns": ["Chemical string", "TGI (µM)"],
 "data": [
  ["O=C(N=Nc1cccc(Cl)c1)NNc1cccc(Cl)c1", 22.2],
  ["Cc1ccc(S(=O)(=O)N2CCSCCN(S(=O)(=O)c3ccc(C)cc3)CCN(S(=O)(=O)c3ccc(C)cc3)CC2)cc1", 69],
  ["CC(=O)Oc1ccccc1/C=C/C(=O)/C=C/c1ccccc1OC(C)=O", 5.32],
  ["O=C1NC(=O)C(=C/C=C/c2ccccc2)C(=O)N1", 25.5],
  ["CNC(=O)OCc1c2ccncc2c(C)c2c1[nH]c1ccccc12", 5],
  ["c1cc2[nH]ncc2cc1-c1nc2ccc3[nH]ncc3c2c2c1CCCC2", 9.11]
]}

Record lookup: for HOP-62 NSCLC, what TGI belongs to "O=C(CN(/C=C/C(=O)C(F)(F)F)c1ccc(Cl)cc1)c1ccccc1" ?
24.5

Now consider "O=C1C(=O)c2c(nc3ccc(Br)cn23)-c2ccccc21" .
3.04

Now consider "Cl.Fc1c[c-]c(-c2ccccn2)c(F)c1.[Pt].c1ccc(P(c2ccccc2)C([PH+](c2ccccc2)c2ccccc2)[PH+](c2ccccc2)c2ccccc2)cc1" .
9.78

Now consider "CC(=O)Nc1ccc(-c2nc3ccccc3s2)cc1I" .
39

Now consider "C[C@]12CC[C@H](O)C[C@H]1CC[C@@H]1[C@@H]2CC[C@]2(C)[C@@H](C3=CC(=O)OC3)[C@@H](O)C[C@]12O" .
2.48

----------
# maps each entry to its GI50
tested on: CCRF-CEM leukemia; experiment: NCI tumour cell line growth inhibition, 48 h

Consider the worked cases shown below.
{"columns": ["Compound", "Target system", "Recorded value"],
 "data": [
  ["Cl.Fc1c[c-]c(-c2ccccn2)c(F)c1.[Pt].c1ccc(P(c2ccccc2)C([PH+](c2ccccc2)c2ccccc2)[PH+](c2ccccc2)c2ccccc2)cc1", "CCRF-CEM leukemia", "3.26 µM"],
  ["COc1cc2nc(SCC(=O)Nc3cc(OC)c(OC)c(OC)c3)n(Cc3ccccc3)c(=O)c2cc1OC", "CCRF-CEM leukemia", "> 100 µM"],
  ["COC1CCN(C(=O)c2cc(Cc3n[nH]c(=O)c4ccccc34)ccc2F)CC1", "CCRF-CEM leukemia", "43.9 µM"],
  ["Clc1ccc2c(c1)N(CCCN1CCCC1)c1ccccc1S2", "CCRF-CEM leukemia", "3.93 µM"]
]}

What value of GI50 has been reported for the following compound? "CN(Cc1cc(Br)cc(Br)c1O)Cc1cc(Br)cc(Br)c1O"
1.31 µM

Now consider "CCCCCCCCN(CCCCCCCC)CCCCCCNc1cc(OC)cc2cccnc12" .
11.4 µM

----------
system: OVCAR-5 ovarian; experiment: NCI tumour cell line growth inhibition, 48 h
# maps each entry to its TGI

Consider the worked cases shown below.
{"columns": ["Molecule", "Target system", "Readout name", "Recorded value"],
 "data": [
  ["CC(C)=NNC=N/C(C#N)=C(\\N)C#N", "OVCAR-5 ovarian", "TGI", "> 100 µM"],
  ["CCOC(=O)c1cnc2n(c1=N)[C@H]1CCCC[C@@H]1N2", "OVCAR-5 ovarian", "TGI", "> 100 µM"],
  ["O=[N+]([O-])c1ccc(Sc2ncnc3nc[nH]c23)c2nonc12", "OVCAR-5 ovarian", "TGI", "22.6 µM"],
  ["CC(=O)NC(CCC(=O)C=[N+]=N)C(=O)O (stereo not given)", "OVCAR-5 ovarian", "TGI", "> 100 µM"],
  ["CCOC(=O)c1c(Cl)nc2ccccc2c1N=[N+]=[N-]", "OVCAR-5 ovarian", "TGI", "41.1 µM"]
]}

What value of TGI has been reported for the following molecule? "Cc1ccc(-c2cc3c(SCC(=O)Nc4cc(C(F)(F)F)ccc4Cl)nccn3n2)cc1"
> 100 µM

Now consider "CS(=O)(=O)Nc1ccc(-c2cc(-c3ccccc3)cc(C(N)=O)c2N)cc1" .
> 25 µM

Now consider Nc1ccn(C2CCC(CO)O2)c(=S)n1 (stereo not given) .
> 100 µM

Now consider N/N=C(\C(=O)Nc1ccc(Cl)cc1Cl)C(c1cnc2ccccc2n1)[N+](=O)[O-] (stereo not given) .
> 100 µM

Now consider "O=C1C(=O)c2c(nc3ccc(Br)cn23)-c2ccccc21" .
3.25 µM
